Data credit: ChEMBL document CHEMBL1944608

# Test system: Alternaria solani
# methodDescription: Antifungal activity against Alternaria solani assessed as inhibition of mycelium growth at 100 ug/ml after 48 hrs
# Assay type: functional
# measurementContext: read-out: GI

| compound | inhibition of growth at 100 µg/mL / % |
| --- | --- |
| CC1COC(Cn2cncn2)(c2ccc(Oc3ccc(Cl)cc3)cc2Cl)O1 (centres undefined) | 100 |
| Cc1ncc(Cn2cc(COc3ccc(Cl)cc3)nn2)c(N)n1 | 44 |
| Cc1ncc(Cn2cc(COc3ccccc3)nn2)c(N)n1 | 25 |
| Cc1ncc(Cn2cc(COc3ccc([N+](=O)[O-])cc3[N+](=O)[O-])nn2)c(N)n1 | 0 |
| Cc1ncc(Cn2nnc(COc3ccccc3)c2I)c(N)n1 | 57 |
| Cc1ncc(Cn2nnc(COc3ccc([N+](=O)[O-])cc3)c2I)c(N)n1 | 66 |
| Cc1ncc(Cn2cc(COc3ccc([N+](=O)[O-])cc3)nn2)c(N)n1 | 24 |
| Cc1ncc(Cn2cc(COc3ccc([N+](=O)[O-])cc3Cl)nn2)c(N)n1 | 20 |
| Cc1ncc(Cn2cc(COc3ccc(C(=O)O)cc3)nn2)c(N)n1 | 33 |
